- system-name: BCL-XL (Homo sapiens, UniProt Q07817)
- Sequence (Q07817 whole entry): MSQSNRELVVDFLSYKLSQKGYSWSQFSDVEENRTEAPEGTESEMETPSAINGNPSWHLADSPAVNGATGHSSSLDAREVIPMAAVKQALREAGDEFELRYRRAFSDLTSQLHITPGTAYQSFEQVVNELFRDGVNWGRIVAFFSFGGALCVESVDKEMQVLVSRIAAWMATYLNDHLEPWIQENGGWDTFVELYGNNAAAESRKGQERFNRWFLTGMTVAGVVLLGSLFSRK
- assay-protocol: 1D 1H-NMR binding assay
- Set-up: key: +++, Very Active; ++, Active; +, Mild; −, Weak
- assay-context: Table 3; BCL-XL 25 μM, compound 200 μM
endpoint-name: 1D-^1H NMR

Solved entries (count: 10):
Cc1cccc(CCNC(=O)c2c(O)c(O)cc3c(O)c(-c4c(C)cc5c(C(=O)NCCc6cccc(C)c6)c(O)c(O)cc5c4O)c(C)cc23)c1 :: +
Cc1cc2c(C(=O)NCCc3ccccc3)c(O)c(O)cc2c(O)c1-c1c(C)cc2c(C(=O)NCCc3ccccc3)c(O)c(O)cc2c1O :: ++
Cc1cc2c(C(=O)Nc3ccccc3)c(O)c(O)cc2c(O)c1-c1c(C)cc2c(C(=O)Nc3ccccc3)c(O)c(O)cc2c1O :: +
CCc1cccc(NC(=O)c2c(O)c(O)cc3c(O)c(-c4c(C)cc5c(C(=O)Nc6cccc(CC)c6)c(O)c(O)cc5c4O)c(C)cc23)c1 :: +
Cc1cc2c(C(=O)O)c(O)c(O)cc2c(O)c1-c1c(C)cc2c(C(=O)O)c(O)c(O)cc2c1O :: −
Cc1cc2c(C(=O)NC3CCCC3)c(O)c(O)cc2c(O)c1-c1c(C)cc2c(C(=O)NC3CCCC3)c(O)c(O)cc2c1O :: +
Cc1cc2c(C(=O)NCc3ccccc3)c(O)c(O)cc2c(O)c1-c1c(C)cc2c(C(=O)NCc3ccccc3)c(O)c(O)cc2c1O :: +
Cc1cc2c(C(=O)NCC3CCCCC3)c(O)c(O)cc2c(O)c1-c1c(C)cc2c(C(=O)NCC3CCCCC3)c(O)c(O)cc2c1O :: +++
Cc1cc2c(C(=O)NC(C)c3ccc(Cl)cc3)c(O)c(O)cc2c(O)c1-c1c(C)cc2c(C(=O)NC(C)c3ccc(Cl)cc3)c(O)c(O)cc2c1O (stereo not drawn) :: +++
Cc1cccc(CNC(=O)c2c(O)c(O)cc3c(O)c(-c4c(C)cc5c(C(=O)NCc6cccc(C)c6)c(O)c(O)cc5c4O)c(C)cc23)c1 :: +++

Item Cc1cc(C)c(CNC(=O)c2c(O)c(O)cc3c(O)c(-c4c(C)cc5c(C(=O)NCc6c(C)cc(C)cc6C)c(O)c(O)cc5c4O)c(C)cc23)c(C)c1 ; assay system BCL-XL (Homo sapiens, UniProt Q07817); 1D-^1H NMR reported as ++

Entry CCc1ccc(CCNC(=O)c2c(O)c(O)cc3c(O)c(-c4c(C)cc5c(C(=O)NCCc6ccc(CC)cc6)c(O)c(O)cc5c4O)c(C)cc23)cc1 under BCL-XL (Homo sapiens, UniProt Q07817) had 1D-^1H NMR of +++
